Data provenance is patent US20260285809A1.

assay info: Solid-state stability under high temperature, high humidity, light exposure and acceleration conditions (HPLC purity, XRPD form)
Format: physicochemical
experimental conditions: solid state, Light exposure 4500 lux, 15d
readout label: remaining at 360 h (%)

• O=C(N[C@@H](Cc1ccc(N2C(=O)C3(CC3)c3ccc(F)c(F)c32)cc1)C(=O)O)c1c(F)cccc1Cl [Crystal Form A] = 99.2

* * *

assay info: Solid-state stability under high temperature, high humidity, light exposure and acceleration conditions (HPLC purity, XRPD form)
Format: physicochemical
experimental conditions: solid state, High temperature 60° C., 15d
readout label: remaining at 360 h (%)

- O=C(N[C@@H](Cc1ccc(N2C(=O)C3(CC3)c3ccc(F)c(F)c32)cc1)C(=O)O)c1c(F)cccc1Cl [Crystal Form A]: 99.4

* * *

assay info: Solubility in biological media (FaSSIF, FeSSIF), HPLC detection
Format: physicochemical
experimental conditions: FeSSIF (pH 5.0), 37° C., 0.5 h
readout label: solubility at 0.5 h (µg/mL)

• O=C(N[C@@H](Cc1ccc(N2C(=O)C3(CC3)c3ccc(F)c(F)c32)cc1)C(=O)O)c1c(F)cccc1Cl [Crystal Form A] = 460

* * *

assay info: Solid-state stability under high temperature, high humidity, light exposure and acceleration conditions (HPLC purity, XRPD form)
Type: physicochemical
experimental conditions: solid state, High humidity 92.5% RH, 7d
readout label: remaining at 168 h

* O=C(N[C@@H](Cc1ccc(N2C(=O)C3(CC3)c3ccc(F)c(F)c32)cc1)C(=O)O)c1c(F)cccc1Cl [Crystal Form A] | 99.3%

* * *

assay info: Solubility in biological media (FaSSIF, FeSSIF), HPLC detection
Assay type: physicochemical
experimental conditions: FeSSIF (pH 5.0), 37° C., 2 h
readout label: solubility at 2 h (µg/mL)

• O=C(N[C@@H](Cc1ccc(N2C(=O)C3(CC3)c3ccc(F)c(F)c32)cc1)C(=O)O)c1c(F)cccc1Cl [Crystal Form A] = 480

* * *

assay info: Solubility in biological media (FaSSIF, FeSSIF), HPLC detection
Assay type: physicochemical
experimental conditions: FaSSIF (pH 6.5), 37° C., 0.5 h
readout label: solubility at 0.5 h (µg/mL)

• O=C(N[C@@H](Cc1ccc(N2C(=O)C3(CC3)c3ccc(F)c(F)c32)cc1)C(=O)O)c1c(F)cccc1Cl [Crystal Form A] = 2130
